Would you kindly list GI50 for each of these compounds?
- Test system: UACC-257
- EXPERIMENTAL_PROTOCOL: NCI tumour cell line growth inhibition, 48 h
Active and inactive are the calls of the source. Rule as the data show it: active = GI50 up to about 1.1 µM and inactive = higher.

Request the reported GI50 associated with COc1cc(-c2coc3c(OC)c(OC4OC(COC5OC(C)C(O)C(O)C5O)C(O)C(O)C4O)c(OC)c(O)c3c2=O)cc(C)c1O (centres undefined)
22.3 µM (inactive)

Could you tell me which GI50 is on file for Nc1ccccc1.O=C(O)C(C(F)(F)F)C(F)(F)F ?
> 100 µM (inactive)

Which measured GI50 value corresponds to CC(C)(C)c1cc(OCc2nnc3sc(S)nn23)c(Cl)cc1OCc1nnc2sc(S)nn12 ?
27.7 µM (inactive)

If you can, please state the reported GI50 value of CSc1ccccc1P(CCP(c1ccccc1SC)c1ccccc1SC)c1ccccc1SC .
13.5 µM (inactive)

What value of GI50 has been recorded for this entry: CCOC(=O)C1C(c2ccccc2)C2(C#N)C(=N)OC1(C)C2(C#N)C#N (centres undefined)
20.5 µM (inactive)

What measured GI50 goes with N#CSCc1nc2ccc(Cl)cc2c(-c2ccccc2)[n+]1[O-] ?
42.3 µM (inactive)

State the recorded GI50 for this entry: CC(=O)OC(C[C@H](C)[C@@H]1CC[C@]2(C)C3=CCC4C(C)(C)C(=O)CC[C@]4(C)C3CCC12C)C1OC1(C)C (some centres undefined)
20.3 µM (inactive)

Please report the recorded GI50 for COc1cc2c(c(OC)c1OC)C(=O)[C@H]1OC(=O)N[C@@H]21 .
> 100 µM (inactive)

What value of GI50 has been reported for the following compound? O=C(O)c1cc(NCc2cc(O)ccc2O)ccc1O
> 100 µM (inactive)

---

Give measured GI50 for each item. Keep answers brief.
- Test system: NCI-H460
- EXPERIMENTAL_PROTOCOL: NCI tumour cell line growth inhibition, 48 h
Activity calls are given as the source filed them. Rule as the data show it: active = GI50 up to about 1.1 µM and inactive = higher.

Param readout = GI50; param system = NCI-H460; param query = N#C/C(=C1\SCC(=O)N1c1ccccc1)c1nc2ccccc2[nH]1 ; response: value
> 100 µM (inactive)

# query: GI50 | item Cc1cc(O)cc2c1O[C@@]1(C)CCC3[C@@]4(C)CC[C@H](O)C(C)(C)C4CC[C@@]3(C)[C@H]1C2 (some centres not stated) | system: NCI-H460
4.41 µM (inactive)

Lab note: need GI50 with NCI-H460 for entry c1ccc2cc(OCC3CO3)c(OCC3CO3)cc2c1 (configuration not stated) , please look it up.
4.2 µM (inactive)

Could you share what GI50 was measured for Nc1ccc(-c2nc3cc(F)ccc3s2)cc1Cl , tested on NCI-H460?
0.0364 µM (active)

Record lookup: for NCI-H460, what GI50 belongs to COc1ccc(-c2csc(Cc3nc4c(Br)cc(Br)cc4c(=O)n3-c3ccc(OC)cc3)n2)cc1 ?
54 µM (inactive)

Reported GI50 for NCI-H460, given CNC(=O)CN(CC(N)=O)C(N)=O ?
> 100 µM (inactive)

State its GI50 on NCI-H460: c1ccc2c(c1)N=C(c1cccc3ccccc13)CC(c1cccc3ccccc13)S2 (configuration not stated)
3.8 µM (inactive)

Hi! What's the reported GI50 for Cc1ccc(N2CCN(CCC(=O)O)CC2)cc1 on NCI-H460?
> 100 µM (inactive)

Notebook entry, NCI-H460 assay: GI50 of O=NN(CCCl)C(=O)N[C@H]1CC[C@@H](O)CC1 = ?
28.3 µM (inactive)

Under NCI-H460: GI50 value of COc1ncnc2c1cnn2Cc1cn(CCCCO)nn1 ?
> 100 µM (inactive)

What value of GI50 on NCI-H460 does N#CC(C#N)=c1ccc(=C2NCC3CCCN23)cc1 (configuration not stated) have?
> 100 µM (inactive)

NCI-H460 / GI50 / COC(=O)C1=C(C)C=C(N2CCOCC2)C(C(=O)OC)C1c1ccccc1 (configuration not stated) : value?
> 10 µM (inactive)

---

- System: NCI-H522
- EXPERIMENTAL_PROTOCOL: NCI tumour cell line growth inhibition, 48 h
Activity calls are given as the source filed them. Rule as the data show it: active = GI50 up to about 1.1 µM and inactive = higher.
RECORDED_ENDPOINT: GI50

Suppose we examine the compound Cn1c(=O)c2c3ccccc3n(C)c2n(C)c1=O ; what GI50 value has been reported?
> 100 µM (inactive)

Which measured GI50 value corresponds to CC(C)OCN/C(N)=N\C#N ?
> 100 µM (inactive)

GI50 for COc1ccc(/C=C2\N=C(SC)NC2=O)cc1 ?
69 µM (inactive)

Query: GI50; subject: Cn1c2ccccc2c2c(=S)c3ccccc3ccc21
36.8 µM (inactive)

Which measured GI50 value corresponds to COc1ccc(CN/C=N/C(C#N)=C(\N)C#N)cc1OC ?
> 100 µM (inactive)

Which GI50 is listed for CN(C(=O)C12C3C4C5C3C1(C(=O)C13C6C7C8C6C1C8C73)C5C42)C(C)(C)C (stereo not drawn) ?
> 32.4 µM (inactive)

// lookup GI50 for CC(=O)OC1CC[C@@]2(C)C(CC[C@]3(C)C2CC=C2[C@@H]4C(C)[C@H](C)CCC4(C)CCC23C)[C@@]1(C)C(=O)O (stereo partly drawn)
19.2 µM (inactive)

Any idea what GI50 was measured for CCN(CC)CCn1nc(N)c2nc3cc(Cl)ccc3nc21 ?
31.8 µM (inactive)

For the compound shown here, N=C(N)SCCON1C(=O)c2ccccc2C1=O , give the reported GI50.
> 100 µM (inactive)

May I ask what GI50 has been recorded for O=c1[nH]c(=O)n(C2OC(CO)C(O)C2O)cc1OCC(F)(F)F (stereo not drawn) ?
> 100 µM (inactive)

So what's the measured GI50 for this one? Cc1ccc(Cc2n[nH]c(=O)n2Nc2ccccc2)cc1
> 100 µM (inactive)

Reported GI50 for N#CC1=C2Sc3ccccc3N2[C@H](c2ccccc2)[C@H]2COC(=O)[C@@H]12 : what is it?
11.2 µM (inactive)

For the compound shown here, CCOC1=C2N=C(C(CC)c3ccc(F)cc3)N=C2C(=O)c2ccccc21 (stereo not drawn) , give the reported GI50.
22.3 µM (inactive)

Please report the recorded GI50 for O=c1oc2nc(-c3ccccc3)cc(C(F)(F)F)c2n1Cc1ccccc1 .
4.33 µM (inactive)

Would you mind telling me what GI50 value was observed for CCOC(=O)c1nc2cc(C(F)(F)F)ccc2nc1Oc1ccc(C#N)cc1 ?
> 100 µM (inactive)

Data request, read-out GI50, for CS(=O)(=O)OC1CN2CCC1CC2 (stereo not drawn)
> 100 µM (inactive)

Find the recorded GI50 belonging to O=C(Nc1ccccc1-c1nn(C(=S)Nc2ccccc2)c(=S)n(C(=S)Nc2ccccc2)c1=O)C(F)(F)F and report it.
13.6 µM (inactive)

Endpoint output: GI50 of C(=N\NC1=NCCN1)/c1cccc2cc3ccncc3nc12 . Value?
3.33 µM (inactive)

Given the entry ONCCCn1cnc2c(NC3CC3)ncnc21 , report its measured GI50.
> 100 µM (inactive)

Would you mind telling me what GI50 value was observed for CCOC(=O)c1[nH]c2c(OC)n[n+]([O-])cc2c1[N+](=O)[O-] ?
19.3 µM (inactive)

Entry N#CC(C#N)=c1ccc(=C2NCC3CCCN23)cc1 (stereo not drawn) has what GI50?
> 100 µM (inactive)

Record request: GI50 value, item O=C(O)CCCN/C(=C1\C(=O)C(=O)N(c2ccccc2)C1=O)c1ccccc1
> 100 µM (inactive)

Give its GI50 value. Item: Cc1ccc(C2=CC(=O)/C(=C\C(=O)c3ccc(Br)cc3)O2)c(C)c1
1.69 µM (inactive)

---

- Tested on: HT-29
- EXPERIMENTAL_PROTOCOL: NCI tumour cell line growth inhibition, 48 h
Calls of active or inactive are those of the source. No stated cut-off is given here; in the data, active = GI50 up to about 1.1 µM and inactive = higher.
RECORDED_ENDPOINT: GI50

Which GI50 reading was recorded for the molecule [N-]=[N+]=Nc1ccc2c(c1)Sc1ccccc1N2CCCCCl ?
20.1 µM (inactive)

Field request: GI50 | item: O=NN(CCCl)C(=O)N[C@H]1CC[C@@H](O)CC1
60.3 µM (inactive)

I would be grateful if you could share the reported GI50 for Cc1ccc(NC(=O)CC/C(CC(=O)C(C)(C)C)=N\NC(=O)C[n+]2ccccc2)cc1C .
91.2 µM (inactive)

I have this molecule here, c1ccc2c(c1)N=C(c1cccc3ccccc13)CC(c1cccc3ccccc13)S2 (stereo not given) , and I need its recorded GI50.
3.33 µM (inactive)

Returns the measured GI50 for the input molecule. Input: COc1ccc(/C=C(/c2ccccc2)c2c(C)cc(C)c(/C(=C\c3ccc(OC)cc3)c3ccccc3)c2/N=N/c2cc(C)cc(C)c2)cc1
9.71 µM (inactive)

Look at this molecule and give its reported GI50. CC(=O)OCCC(O[Si](c1ccccc1)(c1ccccc1)C(C)(C)C)C(C)(C)O (stereo not given)
27.4 µM (inactive)

# query: GI50 of entry COc1ccc(COCCOCc2nc(C#N)c(N)o2)cc1
> 100 µM (inactive)

I'd like to know its GI50. The molecule in question is Cc1ccc(NC(=O)OCC(COc2ccc(Cl)cc2Cl)OC(=O)Nc2ccc(C)cc2)cc1 (stereo not given)
> 100 µM (inactive)

Requested field: GI50. Item: Cc1ccc(C(=O)NCCN(C)C)c2nc3ccccc3cc12
0.462 µM (active)

# input molecule: CC(=O)C(C(=O)c1ccc(C)cc1)[C@@H]1OC(C)(C)O[C@@H]1[C@H]1COC(C)(C)O1 (stereo not given in full) ; wanted: its GI50
5.21 µM (inactive)
